# Test system: NCI-H460 lung
# output must be one of Yes for active, No for inactive

Reference set, count: 3
compound: N/C(=N\OC(=O)c1ccccc1)C(C(=O)NOC(=O)c1ccccc1)C1CCCCC1 (stereo not drawn)
class: No

compound: Cc1cc(N(CCNc2ccnc3cc(Cl)ccc23)Cc2ccc3c(c2)OCO3)nc(N2CCN(C)CC2)n1
class: No

compound: CC(C)N(C(C)C)[PH+]1O[PH+](N(C(C)C)C(C)C)O[PH+](N(C(C)C)C(C)C)O[PH+](N(C(C)C)C(C)C)O[PH+](N(C(C)C)C(C)C)O1.[C-]#[O+].[C-]#[O+].[C-]#[O+].[C-]#[O+].[C-]#[O+].[C-]#[O+].[C-]#[O+].[Cr].[Cr] (stereo not drawn)
class: No

Q: Recorded call for C[C@]12CC[C@@H]3c4ccc(O)c([N+](=O)[O-])c4CC[C@H]3[C@@H]1CC[C@@H]2NS(=O)(=O)c1ccc(C(F)(F)F)cc1 ?
Ans: No

Q: Recorded call for CCN(CCCCCCCCCCN1CC(=O)N(CCCCCCCCCCN(CC)Cc2ccccc2OC)CC1=O)Cc1ccccc1OC ?
Ans: No

Q: Recorded call for CCN(c1ccc(CO)c(Cl)c1)C(C)c1ccc(F)cc1 (stereo not drawn) ?
Ans: No

Q: Recorded call for COc1cc(C2c3cc4c(cc3[C@@H](Nc3ccc(N(C)C)cc3)[C@H]3COC(=O)C23)OCO4)cc(OC)c1O (stereo partly drawn) ?
Ans: Yes

Q: Recorded call for CC1(C)N=C(N)N=C(N)N1c1ccc(CCc2ccccc2)c(Cl)c1 ?
Ans: Yes
